compounds and their reported % RNH(+) at pH 5.0
Experiment: Percent protonated (RNH+) and unprotonated (RN) amine form of local anesthetics as a function of pH
Assay type: physicochemical
Conditions: pH 5.0, protonated form
measurementLabel: % RNH(+) at pH 5.0 (%)

CCCCNc1ccc(C(=O)OCCN(C)C)cc1 [Tetracaine]; 99.94
CCCN(CC)C(CC)C(=O)Nc1c(C)cccc1C (stereo not drawn) [Etidocaine]; 99.80
CCCNC(C)C(=O)Nc1c(C)csc1C(=O)OC (stereo not drawn) [Articaine]; 99.84
CCN(CC)CCOC(=O)c1ccc(N)cc1 [Procaine]; 99.99
Cc1cccc(C)c1NC(=O)C1CCCCN1C (stereo not drawn) [Mepivacaine]; 99.75
CCN(CC)CC(=O)Nc1c(C)cccc1C [Lidocaine]; 99.87
CCCNC(C)C(=O)Nc1ccccc1C (stereo not drawn) [Prilocaine]; 99.87
CCCCN1CCCCC1C(=O)Nc1c(C)cccc1C (stereo not drawn) [Bupivacaine]; 99.92
CCCCOc1cc(C(=O)NCCN(CC)CC)c2ccccc2n1 [Dibucaine]; 99.98
CCCN1CCCC[C@H]1C(=O)Nc1c(C)cccc1C [Ropivacaine]; 99.92
CCOC(=O)c1ccc(N)cc1 [Benzocaine]; 0.99
CCN(CC)CCOC(=O)c1ccc(N)cc1Cl [Chloroprocaine]; 99.98

* * *

Experiment: Percent protonated (RNH+) and unprotonated (RN) amine form of local anesthetics as a function of pH
Format: physicochemical
Details: pH 5.0, unprotonated form
Classification field. Basis: % RN at pH 5.0. Definitions: I (below 0.06%), II (0.06% to below 0.2%), III (0.2% or more)

CCN(CC)CCOC(=O)c1ccc(N)cc1Cl; I
CCOC(=O)c1ccc(N)cc1; III
CCCCOc1cc(C(=O)NCCN(CC)CC)c2ccccc2n1; I
CCN(CC)CC(=O)Nc1c(C)cccc1C; II
CCCNC(C)C(=O)Nc1ccccc1C (stereo not drawn); II
CCCNC(C)C(=O)Nc1c(C)csc1C(=O)OC (stereo not drawn); II
CCCCN1CCCCC1C(=O)Nc1c(C)cccc1C (stereo not drawn); II
CCN(CC)CCOC(=O)c1ccc(N)cc1; I
Cc1cccc(C)c1NC(=O)C1CCCCN1C (stereo not drawn) [Mepivacaine]; III
CCCN1CCCC[C@H]1C(=O)Nc1c(C)cccc1C; II

* * *

Experiment: Percent protonated (RNH+) and unprotonated (RN) amine form of local anesthetics as a function of pH
Assay type: physicochemical
Conditions: pH 6.5, protonated form
measurementLabel: % RNH(+) at pH 6.5 (%)

CCCCNc1ccc(C(=O)OCCN(C)C)cc1; 98.04
CCCCOc1cc(C(=O)NCCN(CC)CC)c2ccccc2n1; 99.50
CCCNC(C)C(=O)Nc1ccccc1C (stereo not drawn); 96.17
CCCN1CCCC[C@H]1C(=O)Nc1c(C)cccc1C; 97.55
CCCN(CC)C(CC)C(=O)Nc1c(C)cccc1C (stereo not drawn); 94.06
CCN(CC)CCOC(=O)c1ccc(N)cc1; 99.60
Cc1cccc(C)c1NC(=O)C1CCCCN1C (stereo not drawn) [Mepivacaine]; 92.64
CCOC(=O)c1ccc(N)cc1; 0.03
CCN(CC)CCOC(=O)c1ccc(N)cc1Cl; 99.37
CCCCN1CCCCC1C(=O)Nc1c(C)cccc1C (stereo not drawn); 97.55
CCN(CC)CC(=O)Nc1c(C)cccc1C; 96.17
CCCNC(C)C(=O)Nc1c(C)csc1C(=O)OC (stereo not drawn); 95.23
